# Max OD (%) (Figure 3f) per entry
Test system: E. coli DH5α cells
Test: Inhibition of bacterial cell growth by CPPs (Max OD600 relative to control)
Format: cell-based, Escherichia coli
Details: E. coli DH5α diluted 1/1000 in LB, 5 μg TAMRA-CPP (0.1 μg/μL), OD600 monitored 18 h; max OD of treated cells / max OD of control cells; replicate 3
Where no end group is shown, it is not given here.

Solved entries (count: 2):
INSERT INTO results (substance, endpoint, reported_value) VALUES
  ('ppTG1 (GLFKALLKLLKSLWKLLLKA; also: TAMRA label, position not given here) [CPP 16, TAMRA-labeled CPP of the 98-CPP library, one of five used to evaluate delivery methods]', 'Max OD (%) (Figure 3f)', '63.3967%'),
  ('Tat48-57 (GRKKRRQRRR; also: TAMRA label, site not given here) [CPP 70, TAMRA-labeled CPP of the 98-CPP library]', 'Max OD (%) (Figure 3f)', '78.7056%');

Max OD (%) (Figure 3f) measured on Tat49-57 (RKKRRQRRR; also: TAMRA label, site not given here) [CPP 45, TAMRA-labeled CPP of the 98-CPP library] = 70.8361%
